- System Tested: T1, human SEMA4A expressed on cells (UniProt ID Q9H3S1, isoform 1) (human, UniProt Q9H3S1 33-761)
- T1 sequence: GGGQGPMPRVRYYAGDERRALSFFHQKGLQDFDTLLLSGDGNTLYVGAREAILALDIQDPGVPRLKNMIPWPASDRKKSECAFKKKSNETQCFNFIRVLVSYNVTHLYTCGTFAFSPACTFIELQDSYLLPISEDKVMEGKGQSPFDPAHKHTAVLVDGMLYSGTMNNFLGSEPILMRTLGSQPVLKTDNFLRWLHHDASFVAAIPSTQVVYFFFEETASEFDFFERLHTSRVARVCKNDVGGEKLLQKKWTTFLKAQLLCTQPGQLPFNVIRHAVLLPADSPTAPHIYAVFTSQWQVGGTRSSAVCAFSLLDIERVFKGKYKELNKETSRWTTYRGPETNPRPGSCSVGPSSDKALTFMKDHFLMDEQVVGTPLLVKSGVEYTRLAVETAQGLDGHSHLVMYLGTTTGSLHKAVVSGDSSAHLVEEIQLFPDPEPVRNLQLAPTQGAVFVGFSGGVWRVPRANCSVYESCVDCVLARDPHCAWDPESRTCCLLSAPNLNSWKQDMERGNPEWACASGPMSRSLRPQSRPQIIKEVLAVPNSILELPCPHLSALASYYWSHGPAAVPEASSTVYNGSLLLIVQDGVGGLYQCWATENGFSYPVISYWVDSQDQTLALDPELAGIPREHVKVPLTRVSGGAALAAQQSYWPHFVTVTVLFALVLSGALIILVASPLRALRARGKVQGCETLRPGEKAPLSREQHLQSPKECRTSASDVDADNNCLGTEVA
- Assay Details: cell-based or functional assay
Reported Metric: Average MM1.S IC50 [pM], cell kill

Binder	Reading
C0120914 human Alya IgG1 conjugated to McMMAF (antibody, V domains shown, McMMAF on the engineered cysteines 239iCys and S442C (EU numbering) of the heavy constant region, Antibody-drug conjugate; human IgG1 Alya constant; also called C0120914-McMMAF) VH: QVQLQESGPGLVKPSETLSLTCTVSGGSVSSGRYDWSWIRQPPGKGLEWIGHIYYTGITDYNPSLRSRVTISADKPKNQFSLKLNSVTAADTAVYYCARGPFFDPWGQGTMVTVSS VL: QSVLTQPPSVSVAPGQTASLTCGANNIGSKSVQWYQQKPGQAPVLVVYDGSDRPSGIPDRFSGSSSENTATLTISRVEAGDEADYYCQLWDSVTDRPVFGGGTKVTVL	1.1 pM
